We begin with a simple list: items and their reported inhibition at 0.4 µM.
target: Human Prostatic 5α-Reductase (Homo sapiens, UniProt P31213); assay: Inhibition of human prostatic 5α-reductase (prostatic microsomes, [3H]testosterone); conditions: read-out: % Inhibition of 5α-reductase, [I] 400 nM
Sequence (P31213 whole entry): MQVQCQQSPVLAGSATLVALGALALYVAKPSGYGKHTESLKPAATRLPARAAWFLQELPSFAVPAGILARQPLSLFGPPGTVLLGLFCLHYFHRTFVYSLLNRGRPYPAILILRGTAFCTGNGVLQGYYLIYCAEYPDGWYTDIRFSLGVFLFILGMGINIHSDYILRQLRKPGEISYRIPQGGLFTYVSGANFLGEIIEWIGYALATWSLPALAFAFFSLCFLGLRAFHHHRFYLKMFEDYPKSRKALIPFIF
Give the number; % is assumed, so skip it.

[
  {
    "smiles-entry": "C[C@]12CC[C@H]3[C@@H](CC[C@]45CC(=O)C=C[C@]34C5)[C@@H]1CCC2=O",
    "target-of-assay": "Human Prostatic 5α-Reductase (Homo sapiens, UniProt P31213)",
    "value-observed": 60.9
  },
  {
    "smiles-entry": "C[C@]12CC[C@H]3[C@@H](CCC4=CC(=O)CC[C@@]43CBr)[C@@H]1CCC2=O",
    "target-of-assay": "Human Prostatic 5α-Reductase (Homo sapiens, UniProt P31213)",
    "value-observed": 52.7
  }
]

Switching to the query record.
The compound listed as CO[C@@H]1[C@]23CC[C@@H]4[C@H](CC[C@]5(C)C(=O)CC[C@@H]45)[C@]12CCC(=O)[C@H]3C has a reported inhibition at 0.4 µM of 16.1
